Below is a list of entries, each paired with its recorded inhibition in vivo at 10 mg/kg value.
- Tested on: Rattus norvegicus
- ASSAY: Anti-inflammatory activity in Wistar albino Rattus norvegicus (rat) assessed as inhibition of carrageenan-induced paw edema at 10 mg/kg, po administered 30 min prior to carrageenan challenge measured after 1 hr by plethysmometric analysis relative to untreated control
- Format: functional
Number in %, nothing else.

COC(=O)CCCn1nc(-c2cccc(-c3cc(F)ccc3OC)c2)oc1=O = 45
COc1ccc(F)cc1-c1cccc(-c2nn(CCO)c(=O)o2)c1 = 41
COc1ccc(F)cc1-c1cccc(-c2nn(CCOC3CCCCO3)c(=O)o2)c1 (stereo not given) = 32
COc1ccc(F)cc1-c1cccc(-c2nn(CCOS(=O)(=O)c3ccc(F)cc3)c(=O)o2)c1 = 40

Let us move to another entry and its inhibition in vivo at 10 mg/kg.
Req: Return reported inhibition in vivo at 10 mg/kg; argument: `COc1ccc(F)cc1-c1cccc(-c2nn(CCCN3C(=O)c4ccccc4C3=O)c(=O)o2)c1`
Resp: 30

###

- System: Aspergillus niger
- ASSAY: Antifungal activity against Aspergillus niger assessed as growth inhibition at 100 ug/mL after 24 hr by cup-plate method
- Assay type: functional
- PARTICULARS: read-out: DIZ
Quick reference for zone of inhibition at 100 µg/mL among some compounds
Numbers only; they are read as mm.

Before answering, review these 3 worked examples.
COc1ccc(F)cc1-c1cccc(-c2nn(CCCN3C(=O)c4ccccc4C3=O)c(=O)o2)c1 = 10
COc1ccc(F)cc1-c1cccc(-c2nn(CCOS(=O)(=O)c3ccc(F)cc3)c(=O)o2)c1 = 9
COC1=CC(=O)C[C@@H](C)[C@]12Oc1c(Cl)c(OC)cc(OC)c1C2=O = 37

Req: Request the reported zone of inhibition at 100 µg/mL associated with `COc1ccc(F)cc1-c1cccc(-c2nn(CCO)c(=O)o2)c1`
Resp: 10

Req: GET /values?readout=zone of inhibition at 100 µg/mL&item= COc1ccc(F)cc1-c1cccc(-c2nn(CCOC3CCCCO3)c(=O)o2)c1 (configuration not stated)
Resp: 11

Req: Which zone of inhibition at 100 µg/mL is listed for `COc1ccc(F)cc1-c1cccc(-c2n[nH]c(=O)o2)c1` ?
Resp: 28

Req: Value lookup for zone of inhibition at 100 µg/mL; key = `COc1ccc(F)cc1-c1cccc(-c2nn(CCCN)c(=O)o2)c1`
Resp: 12

###

- Test system: Rattus norvegicus
- ASSAY: Anti-inflammatory activity in Wistar albino Rattus norvegicus (rat) assessed as inhibition of carrageenan-induced paw edema at 10 mg/kg, po administered 30 min prior to carrageenan challenge measured after 2 hr by plethysmometric analysis relative to untreated control
- Format: functional
Class membership depends on inhibition in vivo at 10 mg/kg alone; the intervals are zone 1: < 60%; zone 2: ≥ 60% and < 70%; zone 3: ≥ 70%

These recorded examples may help you get a feel for the data.
COc1ccc(F)cc1-c1cccc(-c2nn(CCOC3CCCCO3)c(=O)o2)c1 (stereo not given) = zone 1
COC(=O)CCCn1nc(-c2cccc(-c3cc(F)ccc3OC)c2)oc1=O = zone 3
COc1ccc(F)cc1-c1cccc(-c2nn(CCCN)c(=O)o2)c1 = zone 2

Req: Which category fits this record: `COc1ccc(F)cc1-c1cccc(-c2n[nH]c(=O)o2)c1`
Resp: zone 1

Req: Given `COc1ccc(F)cc1-c1cccc(-c2nn(CCCCF)c(=O)o2)c1` , name the class its inhibition in vivo at 10 mg/kg places it in.
Resp: zone 3

Req: Into which category would you place `COc1ccc(F)cc1-c1cccc(-c2nn(CCOS(=O)(=O)c3ccc(F)c(Cl)c3)c(=O)o2)c1` ?
Resp: zone 2

Req: Which category fits this record: `COc1ccc(F)cc1-c1cccc(-c2nn(CCOS(=O)(=O)c3ccc(Cl)c(Cl)c3)c(=O)o2)c1`
Resp: zone 2

###

- System: Mus musculus
- ASSAY: Analgesic activity in Swiss albino Mus musculus (mouse) assessed as latency time of heat-induced paw licking/jumping behaviour at 10 mg/kg after 4 hr by Eddy's hot plate method (reference value: 4.57 +/- 0.11 secs)
- Format: functional
Rule: Time below 6 s gives y. Equal to or above 6 s gives n.

As a guide, the following entries are already answered.
COc1ccc(F)cc1-c1cccc(-c2nn(CCCN)c(=O)o2)c1 = y
COc1ccc(F)cc1-c1cccc(-c2nn(CCOC3CCCCO3)c(=O)o2)c1 (stereo not drawn) = y
COc1ccc(F)cc1-c1cccc(-c2nn(CCCC#N)c(=O)o2)c1 = n
COc1ccc(F)cc1-c1cccc(-c2nn(CCCCF)c(=O)o2)c1 = n

Req: Field: below-cutoff. Rule: recorded Time strictly less than 6 s. Subject: `COc1ccc(F)cc1-c1cccc(-c2n[nH]c(=O)o2)c1`
Resp: n

Req: Confirm or reject: Time of `COc1ccc(F)cc1-c1cccc(-c2nn(CCOS(=O)(=O)c3ccc(Cl)c(Cl)c3)c(=O)o2)c1` lies strictly below 6 s
Resp: y

Req: # strict comparison: is reported Time < 6 s? input = `COc1ccc(F)cc1-c1cccc(-c2nn(CCCN3C(=O)c4ccccc4C3=O)c(=O)o2)c1`
Resp: y

###

- System: Aspergillus niger
- ASSAY: Antifungal activity against Aspergillus niger assessed as growth inhibition at 100 ug/mL after 24 hr by cup-plate method
- Type: functional
- PARTICULARS: read-out: DIZ
MEASUREMENT_KIND: zone of inhibition at 100 µg/mL (mm)
Answer in mm, number only, no unit symbol.

A selection of reference data follows.
COc1ccc(F)cc1-c1cccc(-c2nn(CCOS(=O)(=O)c3ccc(F)c(Cl)c3)c(=O)o2)c1 = 11
COC(=O)CCCn1nc(-c2cccc(-c3cc(F)ccc3OC)c2)oc1=O = 16
COc1ccc(F)cc1-c1cccc(-c2nn(CCCC#N)c(=O)o2)c1 = 14
COc1ccc(F)cc1-c1cccc(-c2nn(CCOS(=O)(=O)c3ccc(Cl)c(Cl)c3)c(=O)o2)c1 = 10

Now take the following compound into account.
Req: Record request: zone of inhibition at 100 µg/mL value, item `COc1ccc(F)cc1-c1cccc(-c2nn(CCCCF)c(=O)o2)c1`
Resp: 10

###

Listed here are compounds together with their documented inhibition in vivo at 10 mg/kg.
- Test system: Rattus norvegicus
- ASSAY: Anti-inflammatory activity in Wistar albino Rattus norvegicus (rat) assessed as inhibition of carrageenan-induced paw edema at 10 mg/kg, po administered 30 min prior to carrageenan challenge measured after 2 hr by plethysmometric analysis relative to untreated control
- Assay type: functional
Numeric answer only, unit % assumed.

Some compounds with recorded inhibition in vivo at 10 mg/kg:
COc1ccc(F)cc1-c1cccc(-c2nn(CCCN3C(=O)c4ccccc4C3=O)c(=O)o2)c1 = 61
COc1ccc(F)cc1-c1cccc(-c2nn(CCO)c(=O)o2)c1 = 69

Next, consider the following compound.
Req: GET /values?readout=inhibition in vivo at 10 mg/kg&item= `COc1ccc(F)cc1-c1cccc(-c2nn(CCCC#N)c(=O)o2)c1`
Resp: 71
